System: MDA-MB-435
Test: NCI tumour cell line growth inhibition, 48 h
Active and inactive are the calls of the source. Rule as the data show it: active = GI50 up to about 1.1 µM and inactive = higher.

molecule	GI50
CC(=O)OC1CCC2(C)C(=CCC3C4CCC5(OC6CC(C)CN(C(C)=O)C6C5C)C(C)=C4C(=O)C32)C1 (centres undefined)	15.3 µM (inactive)
O=C(O)C(F)(OC(F)(F)C(F)(OC(F)(F)C(F)(F)C(F)(F)F)C(F)(F)F)C(F)(F)F (centres undefined)	> 100 µM (inactive)
CC1(C)OCC(C2OC3OC(C)(C)OC3C2N)O1 (centres undefined)	> 100 µM (inactive)
COC(=O)CCCc1c(-c2[nH]c3ccccc3c2CCCC(=O)OC)[nH]c2ccccc12	> 100 µM (inactive)

====

System: HT-29
Test: NCI tumour cell line growth inhibition, 48 h
Active and inactive are the calls of the source. Cut-off read from the data, not from the text of the source: active = GI50 up to about 1.1 µM and inactive = higher.
GI50 listing for selected molecules.

molecule	measurement.target	GI50
CCc1nc(N)nc(N)c1-c1ccc2c(c1)nnn2CCc1ccccc1	HT-29	3.53 µM (inactive)
Cc1c(/N=N/c2ccc([N+](=O)[O-])cc2)nc2scc(-c3ccccc3)n12	HT-29	> 88.5 µM (inactive)
Cn1c(=O)c2c(nc3[nH]c(=O)c(Br)cn32)n(C)c1=O	HT-29	> 100 µM (inactive)
CC1=NN(c2nc(N)nc(C(C)Sc3cc(Cl)c(C)cc3S(N)(=O)=O)n2)C(C)(C)C1 (centres undefined)	HT-29	> 10 µM (inactive)

====

Tested on: SR
Assay: NCI tumour cell line growth inhibition, 48 h
Active and inactive are the calls of the source. No stated cut-off is given here; in the data, active = GI50 up to about 1.1 µM and inactive = higher.
GI50 listing for selected molecules.

structure.notation	GI50
Cc1ccc(C(=O)O)c(/C=C2\Cc3ccc(C)cc3C2=O)c1	32.5 µM (inactive)
Cn1c(=O)cc(/N=N\c2ccc(Cl)c(Cl)c2)[nH]c1=O	25.5 µM (inactive)
COC(=O)[C@@H]1C[C@H]2[C@H](c3ccccc3Br)[C@@H](OC(C)=O)[C@@H](OCc3ccccc3)ON2O1	> 100 µM (inactive)

====

System: HCT-116
Assay: NCI tumour cell line growth inhibition, 48 h
Active and inactive are the calls of the source. No stated cut-off is given here; in the data, active = GI50 up to about 1.1 µM and inactive = higher.
Possible outcomes: active, inactive

molecule	class.label
COC(=O)[C@@H]1C[C@H]2[C@H](c3ccccc3Br)[C@@H](OC(C)=O)[C@@H](OCc3ccccc3)ON2O1	inactive
CCCN1CN(C(C(=O)N[C@@H]2C(=O)N3C(C(=O)O)=C(C)CSC23)c2ccc(O)cc2)CSC1=S (stereo partly drawn)	inactive
C1CSC(Sc2nc(SC3=NCCS3)nc(SC3=NCCS3)n2)=N1	inactive
N#CC1=C(N)Oc2c(ccc3cccnc23)C1c1ccccc1 (stereo not drawn)	active
O=C1C(O)=C(C(CCc2ccccc2)C2=C(O)C(=O)c3ccccc3C2=O)C(=O)c2ccccc21	inactive
C=CCCCCCCCCC(=O)O	inactive
Cc1nc2ccccc2c(=O)n1NC(=O)c1ccccn1	inactive
CCOCN/C(N)=N\C#N	inactive

====

System: SK-MEL-2
Assay: NCI tumour cell line growth inhibition, 48 h
Activity calls are given as the source filed them. Cut-off read from the data, not from the text of the source: active = GI50 up to about 1.1 µM and inactive = higher.
GI50 listing for selected molecules.

molecule	GI50
Cc1cccc2c(O)c3c(O)cc(O)cc3nc12	> 10 µM (inactive)
N#Cc1[nH]c(=O)n(-c2ccccc2)c1N	> 10 µM (inactive)
COC(=O)CC1(O)C(=O)OCc2c1cc1n(c2=O)Cc2c-1nc1ccccc1c2OC (stereo not drawn)	16.1 µM (inactive)

====

System: MCF7
Assay: NCI tumour cell line growth inhibition, 48 h
Activity calls are given as the source filed them. Cut-off read from the data, not from the text of the source: active = GI50 up to about 1.1 µM and inactive = higher.
Possible outcomes: active, inactive

molecule	class.label
CN(C)c1ccc(C=c2c3cc(O)ccc3n3c2cc(-c2ccccc2)[n+]3C)cc1	active
Cc1ccc([N+](=O)[O-])cc1S(=O)(=O)Nc1ccc(C2=NOC(c3cccs3)C2)cc1 (centres undefined)	inactive
C[C@@H]1CCC2[C@@H](C)[C@@H](OCCO[C@H]3OC4O[C@@]5(C)CCC6[C@H](C)CCC([C@H]3C)[C@@]46OO5)OC3O[C@@]4(C)CCC1[C@]32OO4 (some centres undefined)	active
CC1(C)N=C(N)N=C(N)N1c1cccc(Cl)c1	inactive
O=C1NC(c2ccccc2)N=C2Oc3ccccc3C=C12 (centres undefined)	active
Cc1ncc([N+](=O)[O-])n1CCNS(=O)(=O)CCCn1ccnc1[N+](=O)[O-]	inactive
C/C(=N\Oc1cc(Cl)ncn1)c1ccccn1	inactive
CC(C)C1CC(CO)(CNc2cc(Cl)nc(N)n2)C1 (centres undefined)	inactive
COC(=O)/C=C/COCC1C2CCC(=O)C21 (centres undefined)	inactive
COP(=O)(/C=C/c1cc(C(=O)OCc2ccccc2)n(S(=O)(=O)c2ccccc2)c1)OC	inactive
CC1OC(c2ccccc2)=CC(OCc2ccccc2)[C@H]1OCc1ccccc1 (some centres undefined)	inactive
O=C(/C=C/c1cccs1)c1ccc(Cl)cc1	inactive
CN1B(c2ccccc2)N(C)C(=O)N(C)C1=O	inactive
COC(=O)/C=C/C(=O)Nc1cc(Cl)c(Cl)cc1CC(=O)N(C)[C@H]1CCCC[C@@H]1N1CCCC1	inactive

====

Test system: RXF 393
Assay: NCI tumour cell line growth inhibition, 48 h
Calls of active or inactive are those of the source. Rule as the data show it: active = GI50 up to about 1.1 µM and inactive = higher.
Possible outcomes: yes (1) = active, no (0) = inactive

compound	measurement.target	class.label
CC1=NNC(=S)NCCCN2CCN(CCCNC(=S)NN=C(C)C=NNC(=S)NCCCN3CCN(CCCNC(=S)NN=C1)CC3)CC2	RXF 393	no (0)
CC(=O)NC1C(OCc2ccccc2)OC(CO)C(O)C1OC(C)C(=O)NC(C(=O)NC(CCC(=O)NCCCCNc1c2ccccc2nc2cccc([N+](=O)[O-])c12)C(N)=O)C(C)C (stereo unspecified)	RXF 393	no (0)
O=C1N[C@H]2C(=O)c3c(Br)sc(Br)c3[C@H]2O1	RXF 393	no (0)
COc1ccc(CN2C(=O)C(=O)N(C)C2=O)c2ccccc12	RXF 393	no (0)
CCc1ccccc1NC(=O)C(=O)C(C#N)c1ccccc1Cl (stereo unspecified)	RXF 393	no (0)
NN/C(=N\S(=O)(=O)c1ccc(-c2ccccn2)s1)Nc1ccc(Cl)cc1	RXF 393	no (0)
O=[N+]([O-])c1ccc2sc(/C=N/c3cnccn3)cc2c1	RXF 393	yes (1)
N#Cc1ccc(Nc2cnc3cc(N)ccc3n2)cc1	RXF 393	no (0)
Cc1ncc([N+](=O)[O-])n1CCNS(=O)(=O)CCCn1ccnc1[N+](=O)[O-]	RXF 393	no (0)
CC(C)N1CCCOC(c2ccc([N+](=O)[O-])cc2)O1 (stereo unspecified)	RXF 393	no (0)
Cc1ccc(/C=C/C(=O)c2sc(-c3cccnc3)nc2C)cc1	RXF 393	no (0)

====

GI50 listing for selected molecules.
Tested on: M19-MEL
Assay: NCI tumour cell line growth inhibition, 48 h
Active and inactive are the calls of the source. No stated cut-off is given here; in the data, active = GI50 up to about 1.1 µM and inactive = higher.

molecule	GI50
OC1CC1Sc1ccccc1 (stereo not drawn)	32.9 µM (inactive)
CCOC(=O)NC(=O)c1cn(CCCOC(=O)CCCCCCCCC(=O)OCCCn2cc(C(=O)NC(=O)OCC)c(=O)n(C)c2=O)c(=O)n(C)c1=O	> 100 µM (inactive)
COc1cc(C2c3cc4c(cc3[C@@H](Nc3cccc(O)c3)C3COC(=O)[C@H]23)OCO4)cc(OC)c1O (stereo partly drawn)	1.97 µM (inactive)
C=C(C)C(=O)OC1CCC2(C)C(CCC3C2CCC2(C)C(c4ccc(=O)oc4)CC4OC432)C1 (stereo not drawn)	3.91 µM (inactive)
Cc1cc2c(c(C(N)=O)c1C)-c1cc(Cl)cc(Cl)c1C2=O	> 100 µM (inactive)
OCCN(CCO)c1ncnc2c1sc(=S)n2-c1ccccc1	> 100 µM (inactive)
CN1N=CSC12C(=O)N(c1ccc(Cl)cc1)C(=O)N2c1ccc(Cl)cc1 (stereo not drawn)	3.37 µM (inactive)
Cc1cc(N(CCC#N)CCC#N)ccc1/C=C1N=C(/C=C\c2ccccc2)OC\1=O	> 100 µM (inactive)
CC/C(=N/O)C(C)C(=O)CCC(=O)Nc1ccc(Cl)cc1 (stereo not drawn)	> 100 µM (inactive)
Oc1ccc(C2Oc3cc(O)cc4c3C2c2cc(O)cc3c2C(c2cc(O)cc5c2C4C(c2ccc(O)cc2)O5)C(c2ccc(O)cc2)O3)cc1 (stereo not drawn)	10.4 µM (inactive)
O=C1C(Cl)C(c2ccc(Cl)cc2)N1n1cnc2ccccc2c1=O (stereo not drawn)	> 100 µM (inactive)
O=C(Cc1nc2ccc([N+](=O)[O-])cc2nc1O)C(=O)Nc1ccccc1[N+](=O)[O-]	> 100 µM (inactive)
CCc1cccc(C(C)C)c1N1C(=O)C(=O)C(c2nc3ccccc3s2)C(=O)C1=O	39.1 µM (inactive)

====

System: HCT-15
attribute.measured: GI50 (µM)

compound	censoring.qualifier	experimental.value
O=C1NC(N2CCCCC2)=N/C1=C\c1cccs1	>	100
CCCCCCCCCCCCCCCCCCNc1ccn(C2OC(COP(=O)(O)OCC(COP(=O)(O)OCC3OC(n4cc(C)c(=O)[nH]c4=O)CC3N=[N+]=[N-])OCCCCCCCCCCCCCCCCCC)C(O)C2O)c(=O)n1 (configuration not stated)	=	34
Cc1nc(N)c(N2CCN(CN)CC2)c(O)n1	>	100
O=C(O)CNC(=O)C(CSC(=O)OCC1c2ccccc2-c2ccccc21)NC(=O)CCC(NC(=O)OCC1c2ccccc2-c2ccccc21)C(=O)O (configuration not stated)	=	20
COC(OC)C1OC(CO)C(n2cc(C)c(=O)[nH]c2=O)C1O (configuration not stated)	>	100
CCOC(=O)NC(=O)c1cn(CCCOC(=O)CCCCCCCCC(=O)OCCCn2cc(C(=O)NC(=O)OCC)c(=O)n(C)c2=O)c(=O)n(C)c1=O	>	100
COC(=O)CC1(O)C(=O)OCc2c1cc1n(c2=O)Cc2c-1nc1ccccc1c2OC (configuration not stated)	=	4.61

Measured values drawn from ChEMBL document CHEMBL1201862 for this set.
